All figures here come from patent US20250368649A1.

target: KRas G12D (Homo sapiens, UniProt P01116, G12D); assay: biochemical; conditions: Binding to KRas (IC50 nM) G12D, TR-FRET displacement, KRas G12D
Sequence (P01116 1-169 isoform P01116-2 G12D): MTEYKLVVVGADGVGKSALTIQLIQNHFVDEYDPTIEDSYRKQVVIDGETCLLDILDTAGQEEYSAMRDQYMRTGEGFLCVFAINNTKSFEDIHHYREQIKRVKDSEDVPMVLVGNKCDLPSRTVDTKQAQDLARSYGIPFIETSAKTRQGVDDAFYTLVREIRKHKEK
Consider the cut-off 2000 nM. If the recorded IC50 is strictly smaller, the label is satisfied; if not, the label is not satisfied.

{"COMPOUND": "CCc1cccc2cccc(N3CCc4c(nc(OCC5(CN(C)C)CC5)nc4NCc4c(C)nnn4CC)C3)c12", "CLASS NAME": "satisfied"}
{"COMPOUND": "CCc1c(F)ccc2cc(O)cc(N3CCc4c(nc(OC[C@@]56CCCN5C[C@H](F)C6)nc4N4CCCc5nc(C(=O)N(C)C)sc5C4)C3)c12", "CLASS NAME": "satisfied"}
{"COMPOUND": "CCc1cccc2cccc(N3CCc4c(nc(OCC5(CN(C)C)CC5)nc4NCC4COCC4n4cc(C(N)=O)nn4)C3)c12 (stereo not shown)", "CLASS NAME": "not satisfied"}
{"COMPOUND": "CCc1c(F)ccc2cc(O)cc(N3CCc4c(nc(OC[C@@]56CCCN5C[C@H](F)C6)nc4N4CCCn5nc(C(=O)OC)cc5C4)C3)c12", "CLASS NAME": "satisfied"}
{"COMPOUND": "CCc1c(F)ccc2cc(O)cc(N3CCc4c(nc(OC[C@@]56CCCN5C[C@H](F)C6)nc4N4CCCn5nc(C(=O)N6CC7CNC(C7)C6)cc5C4)C3)c12 (stereo partly shown)", "CLASS NAME": "satisfied"}
{"COMPOUND": "C[C@@H]1C[C@@H]1c1c(Cl)cc(O)cc1N1CCc2c(nc(OC[C@@]34CCCN3C[C@H](F)C4)nc2N2CCCn3nc(C(=O)N(C)C)cc3C2)C1 (stereo in doubt)", "CLASS NAME": "satisfied"}
{"COMPOUND": "Cc1cc2[nH]ncc2c(N2CCc3c(nc(OCC45CCCN4CCC5)nc3N3CCCC4(CC(=O)N4)C3)C2)c1C (stereo not shown)", "CLASS NAME": "satisfied"}
{"COMPOUND": "CCc1c(F)ccc2cc(O)cc(N3CCc4c(nc(OC[C@@]56CCCN5C[C@H](F)C6)nc4N4CCCn5nc(C(=O)NC)c(C)c5C4)C3)c12", "CLASS NAME": "satisfied"}
{"COMPOUND": "CCc1cccc2cccc(N3CCc4c(nc(OCC5(CN(C)C)CC5)nc4NCCc4nnc5ccccn45)C3)c12", "CLASS NAME": "not satisfied"}
{"COMPOUND": "CCc1c(F)ccc2cc(O)cc(N3CCc4c(nc(OC[C@@]56CCCN5C[C@H](F)C6)nc4N4CCCn5nc(C(=O)N6CCN(C)CC6)cc5C4)C3)c12", "CLASS NAME": "satisfied"}
{"COMPOUND": "CCc1c(F)ccc2cc(O)cc(N3CCc4c(nc(OC[C@@]56CCCN5C[C@H](F)C6)nc4N4CCCn5nc(C(=O)N6CCC7(CCN7)C6)cc5C4)C3)c12 (stereo partly shown)", "CLASS NAME": "satisfied"}
{"COMPOUND": "Cc1cc2[nH]ncc2c(N2CCc3c(nc(OCC4(CN(C)C)CC4)nc3N3CCC[C@]4(C3)NC(=O)NC4=O)C2)c1C", "CLASS NAME": "satisfied"}

---

system: MKN1 cells; assay: Inhibition of KRas-mediated phosphorylation of ERK (Cisbio HTRF pERK), MKN1 cells; assay type: cell-based; details: Homo sapiens, MKN-1, 3 hour compound incubation, Cisbio pERK HTRF

{"SUBSTANCE SMILES": "CCc1c(F)ccc2cc(O)cc(N3CCc4c(nc(OC[C@@]56CCCN5C[C@H](F)C6)nc4N4CCCn5nc(C(=O)N6C7CCCC6CC7)cc5C4)C3)c12", "ASSAYED TARGET": "MKN1 cells", "QUANTITY UNIT": "nM", "IC50": 6.7}
{"SUBSTANCE SMILES": "CCc1c(F)ccc2cc(O)cc(N3CCc4c(nc(OC[C@]56CCCN5[C@H](COC(=O)N(C)C)CC6)nc4N4CCC[C@@](C)(O)C4)C3)c12", "ASSAYED TARGET": "MKN1 cells", "QUANTITY UNIT": "nM", "IC50": 40}
{"SUBSTANCE SMILES": "CCc1c(F)ccc2cc(O)cc(N3CCc4c(nc(OC[C@]56CCCN5[C@H](COC(=O)N(C)C)CC6)nc4N4CCCn5nc(C(=O)N(C)C)cc5C4)C3)c12", "ASSAYED TARGET": "MKN1 cells", "QUANTITY UNIT": "nM", "IC50": 38}

---

test system: H460 cells; test: Inhibition of KRas-mediated phosphorylation of ERK (Cisbio HTRF pERK), H460 cells; type: cell-based; settings: Homo sapiens, NCI-H460, 3 h, 3 hr compound incubation
Attribute: IC50

{"COMPOUND": "C=C1CN2CCCC2(COc2nc3c(c(N4CCCC5(CNS(=O)(=O)N5)C4)n2)CCN(c2cc(O)cc4ccc(F)c(CC)c24)C3)C1 (stereo not shown)", "ASSAYED TARGET": "H460 cells", "IC50, nM": 141}
{"COMPOUND": "C[C@@H]1C[C@@H]1c1c(Cl)cc(O)cc1N1CCc2c(nc(OC[C@@]34CCCN3C[C@H](F)C4)nc2N2CCC[C@@](C)(O)C2)C1 (stereo in doubt)", "ASSAYED TARGET": "H460 cells", "IC50, nM": 237}
{"COMPOUND": "C[C@@H]1C[C@@H]1c1c(Cl)cc(O)cc1N1CCc2c(nc(OC[C@@]34CCCN3C[C@H](F)C4)nc2N2CCC[C@]3(CNS(=O)(=O)N3)C2)C1 (stereo in doubt)", "ASSAYED TARGET": "H460 cells", "IC50, nM": 131}
{"COMPOUND": "C[C@@]1(O)COCCN(c2nc(OC[C@@]34CCCN3C[C@H](F)C4)nc3c2CCN(c2ccc(F)c4sc(N)c(C#N)c24)C3)C1", "ASSAYED TARGET": "H460 cells", "IC50, nM": 813}
{"COMPOUND": "C[C@@H]1C[C@@H]1c1c(Cl)cc(O)cc1N1CCc2c(nc(OC[C@@]34CCCN3C[C@H](F)C4)nc2N2CCC[C@]3(C2)NC(=O)NC3=O)C1 (stereo in doubt)", "ASSAYED TARGET": "H460 cells", "IC50, nM": 12}
{"COMPOUND": "CCc1c(F)ccc2cc(O)cc(N3CCc4c(nc(OC[C@@]56CCCN5C[C@H](F)C6)nc4N4CCCn5nc(C(=O)N6CC[C@H]7CC[C@@H]6C7)cc5C4)C3)c12", "ASSAYED TARGET": "H460 cells", "IC50, nM": 40}
{"COMPOUND": "C[C@@]1(O)CCCN(c2nc(OC[C@@]34CCCN3C[C@H](F)C4)nc3c2CCN(c2ccc(F)c4sc(N)c(C#N)c24)C3)C1", "ASSAYED TARGET": "H460 cells", "IC50, nM": 2520}
{"COMPOUND": "C[C@@H]1C[C@@H]1c1c(Cl)cc(O)cc1N1CCc2c(nc(OC[C@@]34CCCN3C[C@H](F)C4)nc2N2CCCn3nc(C(=O)N(C)C)cc3C2)C1 (stereo in doubt)", "ASSAYED TARGET": "H460 cells", "IC50, nM": 307}
{"COMPOUND": "C=C1CN2CCCC2(COc2nc3c(c(N4CCCC5(CCO5)C4)n2)CCN(c2cc(O)cc4ccc(F)c(CC)c24)C3)C1 (stereo not shown)", "ASSAYED TARGET": "H460 cells", "IC50, nM": 127}
{"COMPOUND": "CCc1c(F)ccc2cc(O)cc(N3CCc4c(nc(OC[C@@]56CCCN5C[C@H](F)C6)nc4N4CCCN(CC(F)(F)F)CC4)C3)c12", "ASSAYED TARGET": "H460 cells", "IC50, nM": 2440}

---

target: KRas G12S (Homo sapiens, UniProt P01116, G12S); type: binding; conditions: single point, 10 nM compound, read-out: Binding to KRas (% inhibition at 10 nM) G12S
Sequence (P01116 1-169 isoform P01116-2 G12S): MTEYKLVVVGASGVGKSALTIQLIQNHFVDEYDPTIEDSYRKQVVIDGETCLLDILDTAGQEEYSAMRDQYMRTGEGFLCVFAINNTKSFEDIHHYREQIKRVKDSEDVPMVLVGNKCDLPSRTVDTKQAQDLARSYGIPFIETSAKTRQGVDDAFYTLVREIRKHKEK

{"COMPOUND": "CCc1c(F)ccc2cc(O)cc(N3CCc4c(nc(OC[C@@]56CCCN5C[C@H](F)C6)nc4N4CCCn5nc(NC)c(C)c5C4)C3)c12", "inhibition at 0.01 µM, %": 70}
{"COMPOUND": "CCc1c(F)ccc2cc(O)cc(N3CCc4c(nc(OC[C@@]56CCCN5C[C@H](F)C6)nc4N4CCCn5nc(C(=O)N(C)C)c(Br)c5C4)C3)c12", "inhibition at 0.01 µM, %": 100}
{"COMPOUND": "CCc1c(F)ccc2cc(O)cc(N3CCc4c(nc(OC[C@@]56CCCN5C[C@H](F)C6)nc4N4CCCn5nc(C(=O)N(C)C6CC6)cc5C4)C3)c12", "inhibition at 0.01 µM, %": 99}
{"COMPOUND": "CCc1c(F)ccc2cc(O)cc(N3CCc4c(nc(OC[C@@]56CCCN5C[C@H](F)C6)nc4N4CCCn5nc(C(=O)N(C)C)c(COC)c5C4)C3)c12", "inhibition at 0.01 µM, %": 100}
{"COMPOUND": "CCc1c(F)ccc2cc(O)cc(N3CCc4c(nc(OC[C@@]56CCCN5C[C@H](F)C6)nc4N4CCCn5nc(NC)c(F)c5C4)C3)c12", "inhibition at 0.01 µM, %": 82}
{"COMPOUND": "CCc1c(F)ccc2cc(O)cc(N3CCc4c(nc(OC[C@@]56CCCN5C[C@H](F)C6)nc4N4CCCn5nc(C(=O)N6C[C@@H]7C[C@H](C6)[C@H](O)C7)cc5C4)C3)c12", "inhibition at 0.01 µM, %": 99}
{"COMPOUND": "CCc1c(F)ccc2cc(O)cc(N3CCc4c(nc(OC[C@@]56CCCN5C[C@H](F)C6)nc4N4CCCn5nc(C(=O)N6C7CCC6CC7)cc5C4)C3)c12", "inhibition at 0.01 µM, %": 99}
{"COMPOUND": "CCc1c(F)ccc2cc(O)cc(N3CCc4c(nc(OC[C@@]56CCCN5C[C@H](F)C6)nc4N4CCCn5nc(C(=O)N(C)C)c(OC)c5C4)C3)c12", "inhibition at 0.01 µM, %": 99}
{"COMPOUND": "CCc1c(F)ccc2cc(O)cc(N3CCc4c(nc(OC[C@@]56CCCN5C[C@H](F)C6)nc4N4CCCn5nc(C(=O)N6CC7CCC6CN7)cc5C4)C3)c12 (some centres unmarked)", "inhibition at 0.01 µM, %": 99}
{"COMPOUND": "CCc1c(F)ccc2cc(O)cc(N3CCc4c(nc(OC[C@@]56CCCN5C[C@H](F)C6)nc4N4CCCn5nc(C(=O)N6CCC7CC76)cc5C4)C3)c12 (some centres unmarked)", "inhibition at 0.01 µM, %": 99}
{"COMPOUND": "CCc1c(F)ccc2cc(O)cc(N3CCc4c(nc(OC[C@@]56CCCN5C[C@H](F)C6)nc4N4CCCn5nc(C(=O)N(C)C6CCC6)cc5C4)C3)c12", "inhibition at 0.01 µM, %": 98}
